Listing of recorded IC50 by entry.
Target: Human HERG (Homo sapiens, UniProt Q12809)
Sequence (Q12809 whole entry): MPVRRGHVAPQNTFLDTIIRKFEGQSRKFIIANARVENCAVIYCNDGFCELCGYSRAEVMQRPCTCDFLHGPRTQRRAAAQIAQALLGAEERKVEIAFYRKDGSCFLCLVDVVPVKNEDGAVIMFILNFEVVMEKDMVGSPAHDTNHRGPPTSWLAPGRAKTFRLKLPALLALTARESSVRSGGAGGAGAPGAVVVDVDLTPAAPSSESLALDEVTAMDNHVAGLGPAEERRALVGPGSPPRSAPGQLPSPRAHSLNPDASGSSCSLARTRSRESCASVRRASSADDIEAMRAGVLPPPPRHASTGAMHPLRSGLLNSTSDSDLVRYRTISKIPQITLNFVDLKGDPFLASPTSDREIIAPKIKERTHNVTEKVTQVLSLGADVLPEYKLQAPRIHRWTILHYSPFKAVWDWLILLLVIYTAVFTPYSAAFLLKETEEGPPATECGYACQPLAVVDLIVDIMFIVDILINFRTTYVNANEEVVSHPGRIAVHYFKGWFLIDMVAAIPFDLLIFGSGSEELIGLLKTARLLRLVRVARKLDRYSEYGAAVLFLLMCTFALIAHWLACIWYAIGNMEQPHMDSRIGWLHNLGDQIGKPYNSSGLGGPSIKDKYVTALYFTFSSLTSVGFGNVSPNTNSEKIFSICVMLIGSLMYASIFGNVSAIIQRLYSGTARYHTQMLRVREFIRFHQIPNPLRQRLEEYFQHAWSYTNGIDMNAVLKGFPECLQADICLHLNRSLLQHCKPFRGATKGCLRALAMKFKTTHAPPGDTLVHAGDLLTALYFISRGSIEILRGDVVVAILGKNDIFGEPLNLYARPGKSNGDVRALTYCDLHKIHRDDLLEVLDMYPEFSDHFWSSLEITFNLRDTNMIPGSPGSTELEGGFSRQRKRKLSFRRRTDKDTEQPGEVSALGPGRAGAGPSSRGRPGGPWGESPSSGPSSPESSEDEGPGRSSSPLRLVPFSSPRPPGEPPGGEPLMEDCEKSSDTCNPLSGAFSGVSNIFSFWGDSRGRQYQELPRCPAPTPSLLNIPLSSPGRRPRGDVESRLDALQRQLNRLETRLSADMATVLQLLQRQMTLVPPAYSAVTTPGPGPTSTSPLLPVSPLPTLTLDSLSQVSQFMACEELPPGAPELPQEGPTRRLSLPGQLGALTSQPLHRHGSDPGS
Experiment: Human Dofetilide Binding Assay

Guide cases for IC50, answers given:
compound	measured
O=C(NC[C@]1(O)CC[C@H](COc2cccc(Cl)c2)CC1)c1ccc(O)cc1 [Example 15]	20.7 µM
O=C(NC[C@H]1CC[C@@H](COc2cccc(F)c2)CC1)c1cn[nH]c1 [Example 106]	29.1 µM
O=C(NC[C@]1(O)CC[C@H](COCc2ccccc2F)CC1)c1ccc(O)c(F)c1 [Example 69]	> 100 µM
O=C(NC[C@H]1CC[C@@H](COc2ccccc2)OC1)c1ccc(O)cc1 [Example 43]	> 100 µM
O=C(NC[C@]1(O)CC[C@H](Oc2ccc(Cl)cc2)CC1)c1ccc(O)c(F)c1 [Example 33]	95.6 µM

// query Which IC50 is listed for O=C(NC[C@]1(O)CC[C@H](COCc2cccc(F)c2)CC1)c1ccc(O)cc1 [Example 23] ?
// result > 100 µM

// query # repeat for O=C(NC[C@]1(O)CC[C@H](COc2ccccc2)CC1)c1ccc(O)c(F)c1 [Example 62]
// result > 30 µM

// query # repeat for O=C(NC[C@]1(O)CC[C@H](OCc2ccccc2F)CC1)c1ccc(O)cc1 [Example 48]
// result > 100 µM

* * *

Listing of recorded IC50 by entry.
Target: Human HERG (Homo sapiens, UniProt Q12809)
Assay: Human Dofetilide Binding Assay

O=C(NC[C@]1(O)CC[C@H](CCOc2ccccc2F)CC1)c1cn[nH]c1 > 100 µM
O=C(NC[C@]1(O)CC[C@H](COc2ccc(Cl)cc2)CC1)c1ccc(O)cc1 > 100 µM
O=C(NC[C@H]1CC[C@@H](COc2ccc(Cl)cc2)CO1)c1cc(F)c(O)c(F)c1 > 100 µM
O=C(NC[C@]1(O)CC[C@H](COc2ccc(F)cc2)CC1)c1ccc(O)cc1 26.3 µM
Cc1ccc(OC[C@@H]2CC[C@H](CNC(=O)c3cn[nH]c3)OC2)cc1 > 100 µM

// query Which IC50 is listed for O=C(NC[C@H]1CC[C@@H](COc2ccccc2)CC1)c1cn[nH]c1 ?
// result > 30 µM

// query # repeat for O=C(NC[C@H]1CC[C@@H](COc2ccc(Cl)c(F)c2)CO1)c1cn[nH]c1
// result > 30 µM

* * *

Target: NR2B receptor (Rattus norvegicus, UniProt P35439+Q00960)
Construct: Membranes were prepared by homogenization of forebrain of male CD rats; from tissue; host or cells: forebrain of male CD rats (P2 membrane)
Sequence (Q00960 27-1482, other chains not shown): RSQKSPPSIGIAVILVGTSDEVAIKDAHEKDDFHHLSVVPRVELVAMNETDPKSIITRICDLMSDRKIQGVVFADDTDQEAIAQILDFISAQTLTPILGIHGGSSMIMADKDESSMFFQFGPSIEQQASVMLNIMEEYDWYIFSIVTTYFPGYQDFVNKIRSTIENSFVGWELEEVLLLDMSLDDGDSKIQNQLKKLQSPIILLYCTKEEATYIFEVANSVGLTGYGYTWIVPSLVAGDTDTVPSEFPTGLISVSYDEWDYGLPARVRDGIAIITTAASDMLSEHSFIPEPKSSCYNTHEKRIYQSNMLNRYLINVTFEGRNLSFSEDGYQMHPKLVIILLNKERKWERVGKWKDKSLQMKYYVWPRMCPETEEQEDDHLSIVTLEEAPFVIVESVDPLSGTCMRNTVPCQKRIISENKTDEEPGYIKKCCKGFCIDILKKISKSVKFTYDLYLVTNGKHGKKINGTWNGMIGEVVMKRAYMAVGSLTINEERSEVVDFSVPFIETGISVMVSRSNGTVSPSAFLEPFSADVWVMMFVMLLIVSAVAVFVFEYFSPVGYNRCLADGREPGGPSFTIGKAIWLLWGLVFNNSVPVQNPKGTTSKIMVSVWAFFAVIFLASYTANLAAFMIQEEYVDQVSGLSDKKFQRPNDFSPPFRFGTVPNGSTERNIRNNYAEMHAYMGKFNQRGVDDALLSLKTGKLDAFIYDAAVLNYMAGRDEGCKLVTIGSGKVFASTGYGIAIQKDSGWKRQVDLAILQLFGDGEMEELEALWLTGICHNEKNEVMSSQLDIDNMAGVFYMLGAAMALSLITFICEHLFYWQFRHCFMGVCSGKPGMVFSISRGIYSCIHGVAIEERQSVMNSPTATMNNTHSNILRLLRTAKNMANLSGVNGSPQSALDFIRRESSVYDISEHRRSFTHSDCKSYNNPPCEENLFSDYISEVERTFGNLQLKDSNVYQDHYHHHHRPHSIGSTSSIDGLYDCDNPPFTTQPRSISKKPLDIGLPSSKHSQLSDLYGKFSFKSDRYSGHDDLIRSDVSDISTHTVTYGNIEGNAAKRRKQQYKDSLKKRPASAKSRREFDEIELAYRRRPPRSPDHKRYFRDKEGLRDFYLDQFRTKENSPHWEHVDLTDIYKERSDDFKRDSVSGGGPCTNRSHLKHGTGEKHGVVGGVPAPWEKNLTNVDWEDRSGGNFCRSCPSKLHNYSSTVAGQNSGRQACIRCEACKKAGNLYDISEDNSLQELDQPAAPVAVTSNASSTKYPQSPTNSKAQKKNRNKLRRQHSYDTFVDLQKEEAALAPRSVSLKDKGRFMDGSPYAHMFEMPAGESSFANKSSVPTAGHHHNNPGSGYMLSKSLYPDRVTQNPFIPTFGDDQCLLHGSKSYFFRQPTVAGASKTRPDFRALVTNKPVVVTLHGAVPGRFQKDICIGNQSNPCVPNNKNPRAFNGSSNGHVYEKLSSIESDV
Test: NR2B Binding Assay
Settings: forebrain P2 membranes of male CD rats; 5 nM [3H] NR2B ligand
measured.metric: IC50 (nM)
Form entry: value (nM) — number only.

Guide cases for IC50, answers given:
compound	measured
O=C(NC[C@H]1CC[C@@H](OCCOc2ccc(F)cc2)CC1)c1ccc(O)nc1 [Example 95]	4
O=C(NC[C@]1(O)CC[C@H](COc2ccccc2)CC1)c1ccc(O)c(F)c1 [Example 62]	9.1
O=C(NC[C@H]1CC[C@@H](COc2ccc(Cl)c(F)c2)CO1)c1cn[nH]c1 [Example 129]	10.3
O=C(NC[C@]1(O)CC[C@H](COCc2cccc(F)c2)CC1)c1ccc(O)cc1 [Example 23]	28.6
O=C(NC[C@H]1CC[C@@H](CCOc2ccc(F)cc2)CO1)c1cn[nH]c1 [Example 113]	6.5
O=C(NC[C@]1(O)CC[C@H](Oc2ccc(Cl)cc2)CC1)c1ccc(O)c(F)c1 [Example 33]	19.3

// query Which IC50 is listed for O=C(NC[C@H]1CC[C@@H](COc2ccccc2)OC1)c1ccc(O)cc1 [Example 43] ?
// result 7.6

// query # repeat for O=C(NC[C@]1(O)CC[C@H](COc2ccc(F)cc2)CC1)c1ccc(O)c(F)c1 [Example 66]
// result 12.6

* * *

measured.metric: melting point (°C)
Form entry: value (°C) — number only.

// query Which melting point is listed for O=C(NC[C@]1(O)CC[C@@H](Oc2ccc(Cl)cc2)CC1)c1ccc(O)c(F)c1 ?
// result 168.1

// query # repeat for O=C(NC[C@]1(O)CC[C@H](CCOc2ccccc2F)CC1)c1ccc(O)c(F)c1
// result 184.7

// query # repeat for O=C(NC[C@]1(O)CC[C@H](COCc2ccc(F)cc2)CC1)c1ccc(O)cc1
// result 167.6

// query # repeat for O=C(NC[C@]1(O)CC[C@H](COCc2ccccc2)CC1)c1ccc(O)cc1
// result 165.7

* * *

Target: NR2B receptor (Rattus norvegicus, UniProt P35439+Q00960)
Construct: Membranes were prepared by homogenization of forebrain of male CD rats
Experiment: NR2B Binding Assay
Conditions: competition assay, rat forebrain P2 membranes; read-out: Ki value, binding affinity for the NR2B receptor
measured.metric: pKi
// pKi here means minus log10 of the molar concentration (mol/L)

// query Which pKi is listed for O=C(NC[C@]1(O)CC[C@H](COc2ccccc2F)CC1)c1ccc(O)cc1 ?
// result 8.21

* * *

Molecular target: NR2B receptor (Rattus norvegicus, UniProt P35439+Q00960)
Construct: Membranes were prepared by homogenization of forebrain of male CD rats
Test: NR2B Binding Assay
Conditions: forebrain P2 membranes of male CD rats; 5 nM [3H] NR2B ligand
measured.metric: IC50 (nM)
Form entry: value (nM) — number only.

Guide cases for IC50, answers given:
O=C(NC[C@]1(O)CC[C@H](COCc2ccc(F)cc2)CC1)c1ccc(O)cc1 21.8
Cc1ccc(OC[C@@H]2CC[C@H](CNC(=O)c3cn[nH]c3)OC2)cc1 7.1
O=C(NC[C@]1(O)CC[C@H](COCc2ccccc2F)CC1)c1ccc(O)cc1 11

Query compound follows.
// query Field: IC50 (NR2B receptor (Rattus norvegicus, UniProt P35439+Q00960)). Entry: O=C(NC[C@H]1CC[C@@H](COc2ccccc2)CC1)c1cn[nH]c1
// result 15.4

* * *

pIC50: −log10 of the molar value.
Listed here: molecules with reported pIC50 for Human HERG (Homo sapiens, UniProt Q12809).

molecule	pIC50
O=C(NCC1(O)CCC(COCc2cccc(F)c2)CC1)c1ccc(O)c(F)c1 (centres unmarked)	< 4.00

Query molecule follows.
// query Which pIC50 is listed for O=C(NC[C@H]1CC[C@@H](OCCc2ccccc2)CC1)c1ccc(O)nc1 ?
// result < 4.00

* * *

Listing of recorded IC50 by entry.
Molecular target: UniProtKB Q12809
Test: Human Dofetilide Binding Assay

// query Which IC50 is listed for O=C(NC[C@]1(O)CC[C@H](CCOc2ccccc2)CC1)c1ccc(O)c(F)c1 ?
// result > 30 µM

// query # repeat for O=C(NC[C@]1(O)CC[C@H](COCc2ccc(F)cc2)CC1)c1ccc(O)c(F)c1
// result > 100 µM

// query # repeat for O=C(NC[C@]1(O)CC[C@H](Cc2ccc(F)cc2)CC1)c1ccc(O)cc1
// result 35.7 µM

// query # repeat for O=C(NC[C@]1(O)CC[C@H](COc2ccccc2F)CC1)c1ccc(O)c(F)c1
// result > 100 µM

// query # repeat for O=C(NC[C@]1(O)CC[C@H](COCc2ccccc2F)CC1)c1ccc(O)cc1
// result > 100 µM

* * *

Biological target: HERG potassium channel (Homo sapiens, UniProt Q12809)
Sequence (Q12809 whole entry): as the sequence (Q12809 whole entry) above
measured.metric: IC50

// query Field: IC50 (HERG potassium channel (Homo sapiens, UniProt Q12809)). Entry: O=C(NCC1CCN(CCCc2ccccc2)CC1)c1ccc(O)cc1
// result < 3 µM

* * *

measured.metric: melting point
# do not omit the unit; it follows the number

Guide cases for melting point, answers given:
O=C(NC[C@H]1CC[C@@H](COc2ccc(F)cc2)CC1)c1cn[nH]c1 147.1 °C
O=C(NC[C@H]1CC[C@@H](CCOc2ccccc2)CC1)c1ccnc(O)c1 199.9 °C
O=C(NC[C@H]1CC[C@@H](CCOc2ccccc2)CC1)c1c[nH]cn1 169.6 °C
O=C(NC[C@]1(O)CC[C@H](COc2ccccc2Cl)CC1)c1ccc(O)cc1 159 °C

// query Which melting point is listed for O=C(NC[C@]1(O)CC[C@H](COCc2ccccc2F)CC1)c1ccc(O)cc1 ?
// result 174.3 °C

// query # repeat for O=C(NC[C@]1(O)CC[C@H](CCOc2ccccc2)CC1)c1ccc(O)c(F)c1
// result 164 °C

// query # repeat for Cc1ccccc1OC[C@H]1CC[C@@](O)(CNC(=O)c2ccc(O)cc2)CC1
// result 189.1 °C

// query # repeat for O=C(NC[C@]1(O)CC[C@H](COc2c(F)cccc2F)CC1)c1ccc(O)cc1
// result 153.7 °C

* * *

Listing of recorded melting point by entry.
Form entry: value (°C) — number only.

molecule	measured.metric	measured
O=C(NC[C@]1(O)CC[C@H](CCOc2ccccc2F)CC1)c1cn[nH]c1 [Example 56]	melting point	175.1
O=C(NC[C@H]1CC[C@@H](COc2ccccc2)CC1)c1cn[nH]c1 [Example 73]	melting point	150.1
O=C(NC[C@H]1CC[C@@H](CCOc2ccccc2)CC1)c1ccc(=O)[nH]n1 [Example 93]	melting point	177.5
O=C(NC[C@]1(O)CC[C@H](OCc2ccccc2F)CC1)c1ccc(O)cc1 [Example 48]	melting point	162.9
O=C(NC[C@H]1CC[C@@H](Cc2ccccc2)CC1)c1ccc2nc(O)ccc2c1 [Example 122]	melting point	236.7

// query Which melting point is listed for O=C(NC[C@]1(O)CC[C@H](COc2ccccc2F)CC1)c1ccc(O)cc1 [Example 11] ?
// result 185

// query # repeat for O=C(NC[C@]1(O)CC[C@@H](Oc2ccc(Cl)cc2)CC1)c1ccc(O)cc1 [Example 32]
// result 196.6

// query # repeat for Cc1ccc(OC[C@H]2CC[C@@](O)(CNC(=O)c3ccc(O)cc3)CC2)cc1 [Example 19]
// result 203.1

// query # repeat for O=C(NC[C@]1(O)CC[C@H](COCc2ccc(F)cc2)CC1)c1ccc(O)c(F)c1 [Example 64]
// result 155.9

// query # repeat for O=C(NC[C@H]1CC[C@@H](OCCc2ccccc2)CC1)c1cn[nH]c1 [Example 72]
// result 145

// query # repeat for O=C(NC[C@]1(O)CC[C@H](OCc2cccc(F)c2)CC1)c1ccc(O)c(F)c1 [Example 49]
// result 138.2

// query # repeat for O=C(NC[C@]1(O)CC[C@H](OCc2ccc(F)cc2)CC1)c1ccc(O)cc1 [Example 47]
// result 122.1

// query # repeat for O=C(NC[C@H]1CC[C@@H](Oc2ccc(F)cc2)CC1)c1ccc(O)c(F)c1 [Example 55]
// result 149.5
